B1: library; a variant is named by its letters at N, in order (parent)
chain: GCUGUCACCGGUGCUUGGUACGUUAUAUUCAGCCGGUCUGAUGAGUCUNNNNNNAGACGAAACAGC

# Variants of: B1
# test details: normalized RNA/DNA level without ligand (relative to sTRSVctl = 100) (log10 (% of sTRSVctl)); HEK293T overexpressing SLC46A1; higher = less ribozyme self-cleavage, higher mRNA level
# experimental parameters: without (6R,S)-folinic acid; ligand present: no
Answer each item with its documented normalized RNA/DNA level without ligand (log10).

INSERT INTO assay_data (mutation_name, recorded_measurement) VALUES
  ('GCUUCG', 2.02),
  ('GAUUGG', 1.97),
  ('GUGUCG', 2.01),
  ('UAAACA', 1.96),
  ('AUCGUU', 2.04);

# batch: return normalized RNA/DNA level without ligand (log10) for each of the 8 variants below
1. UCACAU
2. AGCGAA
3. UGGAUU
4. GUAAUU
5. UUCCAA
6. UCUGCA
7. GUGUUC
8. UCAUCA

Marked response:
[1.99, 1.96, 1.98, 2.01, 1.99, 2, 2.01, 2.05]

Exam item: Would you kindly share the measured normalized RNA/DNA level without ligand (log10) for GAAAAU ?
Marked response: 1.99
